- test method notes: Plasma Stability Assay of Example A3, mouse plasma
- measurement parameters: 120 min; 5 μM, 37° C.; % of prodrug compound remaining
outcome measure: Mouse Plasma Prodrug (%)
Response body: numeric value in %, unit text excluded.

Below: 5 molecules and their reported Mouse Plasma Prodrug (%).
entry_smiles=COc1ccc([C@@]23CCC(OC(=O)C4CC4)=C[C@@H]2N(C)CC3)cc1OC observed_measurement=2.8
entry_smiles=COc1ccc([C@@]23CCC(OC(=O)C(c4ccccc4)c4ccccc4)=C[C@@H]2N(C)CC3)cc1OC observed_measurement=0.4
entry_smiles=COc1ccc([C@@]23CCC(OC(=O)c4cccc(C)c4C)=C[C@@H]2N(C)CC3)cc1OC observed_measurement=12
entry_smiles=COc1ccc([C@@]23CCC(OC(=O)c4ccc(C(C)C)cc4)=C[C@@H]2N(C)CC3)cc1OC observed_measurement=0
entry_smiles=COc1ccc([C@@]23CCC(OC(=O)C(C)(C)C)=C[C@@H]2N(C)CC3)cc1OC observed_measurement=0.0

Enquiry: What value of measured Mouse Plasma Prodrug (%) is listed for "COc1ccc([C@@]23CCC(OC(=O)c4cccc(C(C)(C)C)c4)=C[C@@H]2N(C)CC3)cc1OC" ?
Return: 0

Enquiry: Which Mouse Plasma Prodrug (%) value is on record for "COc1ccc([C@@]23CCC(OC(=O)c4ccc(F)cc4)=C[C@@H]2N(C)CC3)cc1OC" ?
Return: 0

Where do these numbers come from? They come from patent US20250051277A1.
